- Tested on: L1210 leukemia
- protocol_description: L1210 leukemia survival time in mice (ip implanted)
- Assay type: in vivo, mice (CD2F1)
- condition_parameters: 15 mg/kg ip once daily × 6; cures not included
- Procedure: Leukemia L1210 cells were obtained from the Frederick Cancer Research Facility, Division of Cancer Treatment Tumor Repository of the National Cancer Institute, and were maintained by serial passage in tissue culture. Every 8 weeks, tumor cells were injected intraperitoneally into five donor CD2 F1 mice 8- to 10- weeks of age and were allowed to grow for 7 days. The peritoneal fluid was withdrawn and the suspension was centrifuged for 5 min at 1600 g. […]
Please go through the items and note down their %T/C (average survival time treated/control × 100).

Sample `CS(=O)(=O)N(CCCl)N(C(=O)NCCCl)S(C)(=O)=O` — what was its %T/C (average survival time treated/control × 100)?
216%

Sample CCOC(=O)C(C)NC(=O)N(N(CCCl)S(C)(=O)=O)S(C)(=O)=O (centres unmarked) — what was its %T/C (average survival time treated/control × 100)?
185%

Sample `CS(=O)(=O)N(CCCl)N(C(=O)NCCCCl)S(C)(=O)=O` — what was its %T/C (average survival time treated/control × 100)?
192%

Sample CCOC(=O)C(Cc1ccccc1)NC(=O)N(N(CCCl)S(C)(=O)=O)S(C)(=O)=O (centres unmarked) — what was its %T/C (average survival time treated/control × 100)?
160%

Sample `CCOC(=O)CNC(=O)N(N(CCCl)S(C)(=O)=O)S(C)(=O)=O` — what was its %T/C (average survival time treated/control × 100)?
202%
